compounds and their reported inhibition
TARGET_DESC: Sterol O-acyltransferase 1 (Homo sapiens) (UniProt P35610)
Sequence (whole entry): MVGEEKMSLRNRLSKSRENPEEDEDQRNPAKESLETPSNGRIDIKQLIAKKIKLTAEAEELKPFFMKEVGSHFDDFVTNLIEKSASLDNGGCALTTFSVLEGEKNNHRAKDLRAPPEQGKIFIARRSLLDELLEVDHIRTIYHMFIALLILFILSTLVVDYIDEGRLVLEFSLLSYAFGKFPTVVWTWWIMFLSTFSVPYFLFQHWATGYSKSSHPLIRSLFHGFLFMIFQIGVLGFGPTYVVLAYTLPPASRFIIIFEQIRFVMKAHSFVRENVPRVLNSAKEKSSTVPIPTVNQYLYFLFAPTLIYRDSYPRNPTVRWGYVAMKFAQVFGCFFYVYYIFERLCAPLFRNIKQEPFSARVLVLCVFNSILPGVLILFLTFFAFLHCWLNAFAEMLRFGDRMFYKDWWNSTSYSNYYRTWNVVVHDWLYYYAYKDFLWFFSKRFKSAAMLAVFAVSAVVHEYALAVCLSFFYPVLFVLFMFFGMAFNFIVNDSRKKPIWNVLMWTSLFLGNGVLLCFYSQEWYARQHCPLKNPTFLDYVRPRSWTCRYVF
ASSAY_REMARKS: Inhibition of ACAT at 0.2 mg/mL
Could you give me the number in %? Just the number is fine.

Below, each entry is followed by its recorded inhibition result.
C[C@H]1[C@H](C)CC[C@]2(C(=O)O[C@@H]3O[C@H](CO)[C@@H](O)[C@H](O)[C@H]3O)CC[C@]3(C)C(=CC[C@@H]4[C@@]5(C)CC[C@H](O[C@H]6O[C@@H](C(=O)O)[C@H](O)[C@@H](O)[C@@H]6O)[C@@](C)(CO)[C@@H]5CC[C@]43C)[C@H]12 :: 29
C[C@@H]1O[C@@H](O[C@H]2[C@H](O[C@H]3CC[C@]4(C)[C@H]5CC=C6[C@H]7[C@](C(=O)O[C@@H]8O[C@H](CO)[C@@H](O)[C@H](O)[C@H]8O)(CC[C@@H](C)[C@@]7(C)O)CC[C@@]6(C)[C@]5(C)CC[C@H]4C3(C)C)OC[C@H](O)[C@@H]2O[C@@H]2O[C@H](CO)[C@@H](O)[C@H](O)[C@H]2O)[C@H](O)[C@H](O)[C@H]1O :: 10.3
C[C@@H]1O[C@@H](O[C@H]2[C@H](OC(=O)[C@]34CC[C@@H](C)[C@@](C)(O)[C@H]3C3=CC[C@@H]5[C@@]6(C)CC[C@H](O[C@@H]7OC[C@H](O)[C@H](O[C@@H]8O[C@H](CO)[C@@H](O)[C@H](O)[C@H]8O)[C@H]7O[C@@H]7O[C@@H](C)[C@H](O)[C@@H](O)[C@H]7O)C(C)(C)[C@@H]6CC[C@@]5(C)[C@]3(C)CC4)O[C@H](CO)[C@@H](O)[C@@H]2O)[C@H](O)[C@H](O)[C@H]1O :: 10.6

Read the next record carefully.
Report inhibition on Sterol O-acyltransferase 1 (Homo sapiens) (UniProt P35610) for this entry: CC1(C)CC[C@]2(C(=O)O[C@@H]3O[C@H](CO)[C@@H](O)[C@H](O)[C@H]3O)CC[C@]3(C)C(=CC[C@@H]4[C@@]5(C)CC[C@H](O[C@H]6O[C@@H](C(=O)O)[C@H](O)[C@@H](O)[C@@H]6O)[C@@](C)(CO)[C@@H]5CC[C@]43C)[C@@H]2C1 36.5

---

molecules and their reported inhibition
TARGET_DESC: Sterol O-acyltransferase 1 (Homo sapiens)
Sequence (whole entry): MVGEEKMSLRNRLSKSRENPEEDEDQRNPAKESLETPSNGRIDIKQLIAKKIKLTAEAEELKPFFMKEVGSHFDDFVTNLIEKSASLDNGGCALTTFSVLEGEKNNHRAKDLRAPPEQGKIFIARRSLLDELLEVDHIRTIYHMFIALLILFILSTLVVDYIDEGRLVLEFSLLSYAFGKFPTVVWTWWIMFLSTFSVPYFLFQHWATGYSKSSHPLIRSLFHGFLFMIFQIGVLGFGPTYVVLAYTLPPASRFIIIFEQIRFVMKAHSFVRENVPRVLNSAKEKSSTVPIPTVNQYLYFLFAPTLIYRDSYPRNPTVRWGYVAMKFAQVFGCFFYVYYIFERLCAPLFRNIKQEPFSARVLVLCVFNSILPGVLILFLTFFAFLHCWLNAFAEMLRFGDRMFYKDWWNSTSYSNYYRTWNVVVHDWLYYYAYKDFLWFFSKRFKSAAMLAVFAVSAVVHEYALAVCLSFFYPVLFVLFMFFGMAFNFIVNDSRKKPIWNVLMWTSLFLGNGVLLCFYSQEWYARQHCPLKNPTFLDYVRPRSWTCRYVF
ASSAY_REMARKS: Inhibition of ACAT at 1 mg/mL
Could you give me the number in %? Just the number is fine.

C[C@H]1[C@H](C)CC[C@]2(C(=O)O[C@@H]3O[C@H](CO)[C@@H](O)[C@H](O)[C@H]3O)CC[C@]3(C)C(=CC[C@@H]4[C@@]5(C)C[C@@H](O)[C@H](O[C@@H]6OC[C@H](O)[C@H](O)[C@H]6O)[C@@](C)(CO)[C@@H]5CC[C@]43C)[C@H]12 :: 35.5

Report inhibition on Sterol O-acyltransferase 1 (Homo sapiens) for this entry: C[C@@H]1O[C@@H](O[C@H]2[C@H](O[C@H]3CC[C@]4(C)[C@H]5CC=C6[C@@H]7[C@H](O)C(C)(C)CC[C@]7(C(=O)O[C@@H]7O[C@H](CO)[C@@H](O)[C@H](O)[C@H]7O)CC[C@@]6(C)[C@]5(C)CC[C@H]4C3(C)C)OC[C@H](O)[C@@H]2O[C@@H]2O[C@H](CO)[C@@H](O)[C@H](O)[C@H]2O)[C@H](O)[C@H](O)[C@H]1O 20

---

TARGET_DESC: Sterol O-acyltransferase 1 (Homo sapiens) (UniProt P35610)
ASSAY_REMARKS: Inhibition of ACAT at 1 mg/mL
PARAMETER_MEASURED: inhibition (%)
Could you give me the number in %? Just the number is fine.

C=C1CC[C@]2(C(=O)O[C@@H]3O[C@H](CO)[C@@H](O)[C@H](O)[C@H]3O[C@@H]3O[C@@H](C)[C@H](O)[C@@H](O)[C@H]3O)CC[C@]3(C)C(=CC[C@@H]4[C@@]5(C)CC[C@H](O[C@@H]6OC[C@H](O)[C@H](O[C@@H]7O[C@H](CO)[C@@H](O)[C@H](O)[C@H]7O[C@@H]7O[C@H](CO)[C@@H](O)[C@H](O)[C@H]7O)[C@H]6O[C@@H]6O[C@@H](C)[C@H](O)[C@@H](O)[C@H]6O)C(C)(C)[C@@H]5CC[C@]43C)[C@@H]2[C@]1(C)O :: 60
C[C@H]1[C@H](C)CC[C@]2(C(=O)O[C@@H]3O[C@H](CO)[C@@H](O)[C@H](O)[C@H]3O)CC[C@]3(C)C(=CC[C@@H]4[C@@]5(C)CC[C@H](O[C@H]6O[C@@H](C(=O)O)[C@H](O)[C@@H](O)[C@@H]6O)[C@@](C)(CO)[C@@H]5CC[C@]43C)[C@H]12 :: 63.9
CC1(C)CC[C@]2(C(=O)O[C@@H]3O[C@H](CO)[C@@H](O)[C@H](O)[C@H]3O)CC[C@]3(C)C(=CC[C@@H]4[C@@]5(C)CC[C@H](O[C@H]6O[C@@H](C(=O)O)[C@H](O)[C@@H](O)[C@@H]6O)[C@@](C)(CO)[C@@H]5CC[C@]43C)[C@@H]2C1 :: 64.3

Report inhibition on Sterol O-acyltransferase 1 (Homo sapiens) (UniProt P35610) for this entry: C[C@@H]1O[C@@H](O[C@H]2[C@H](O[C@H]3CC[C@]4(C)[C@H]5CC=C6[C@H]7[C@](C(=O)O[C@@H]8O[C@H](CO)[C@@H](O)[C@H](O)[C@H]8O)(CC[C@@H](C)[C@@]7(C)O)CC[C@@]6(C)[C@]5(C)CC[C@H]4C3(C)C)OC[C@H](O)[C@@H]2O[C@@H]2O[C@H](CO)[C@@H](O)[C@H](O)[C@H]2O)[C@H](O)[C@H](O)[C@H]1O 31.8

Report inhibition on Sterol O-acyltransferase 1 (Homo sapiens) (UniProt P35610) for this entry: C[C@@H]1CC[C@]2(C(=O)O[C@@H]3O[C@H](CO)[C@@H](O)[C@H](O)[C@H]3O)CC[C@]3(C)C(=CC[C@@H]4[C@@]5(C)CC[C@H](O[C@H]6O[C@@H](C(=O)O)[C@H](O)[C@@H](O)[C@@H]6O)C(C)(C)[C@@H]5CC[C@]43C)[C@@H]2[C@]1(C)O 12.5

Report inhibition on Sterol O-acyltransferase 1 (Homo sapiens) (UniProt P35610) for this entry: C[C@@H]1O[C@@H](O[C@H]2[C@H](O[C@H]3CC[C@]4(C)[C@H]5CC=C6[C@@H]7CC(C)(C)CC[C@]7(C(=O)O[C@@H]7O[C@H](CO)[C@@H](O)[C@H](O)[C@H]7O)CC[C@@]6(C)[C@]5(C)CC[C@H]4C3(C)C)OC[C@H](O)[C@@H]2O[C@@H]2O[C@H](CO)[C@@H](O)[C@H](O)[C@H]2O)[C@H](O)[C@H](O)[C@H]1O 25.4
